Data origin, for the record: PubChem BioAssay (NCI)

System: NCI-H23 lung
experiment: NCI tumour cell line growth inhibition, 48 h
Measured TGI, listed per entry for reference.

>  <compound>
Cc1cc(C)c2c(n1)S(=O)(=O)N(CCCN1CCN(c3cccc(C(F)(F)F)c3)CC1)/C(=C(\O)c1ccc(Cl)cc1)C2=O

>  <measurement.name>
TGI

>  <result>
14 µM

$$$$
>  <compound>
NCCCC(N)C(=O)O (stereo not given)

>  <measurement.name>
TGI

>  <result>
> 100 µM

$$$$
>  <compound>
Cc1c(C(=O)/C=C/c2cccc3ccccc23)[n+](=O)c2ccccc2n1[O-]

>  <measurement.name>
TGI

>  <result>
25.7 µM

$$$$

The record that follows has no TGI shown yet.
Noted for COC(=O)C(CC(=O)c1cc2c(cc1I)OCO2)Cc1cc(OC)c(OC)c(OC)c1I (stereo not given) : its TGI reads > 100 µM

* * *

Test system: ACHN renal
experiment: NCI tumour cell line growth inhibition, 48 h
measurement.name: TGI (µM)
Report as a plain number; the unit µM is understood.

Previously resolved entries follow.
>  <structure.smiles>
CN(C)CCNC(=O)c1cccc2nc3c(Cl)cccc3nc12

>  <tested.system>
ACHN renal

>  <numeric.result>
30.5

$$$$
>  <structure.smiles>
O=C1/C(=C/c2ccc(F)cc2)CNC/C1=C\c1ccc(F)cc1

>  <tested.system>
ACHN renal

>  <numeric.result>
3.18

$$$$
>  <structure.smiles>
O=C(Cc1ccc(/C=C/C(=O)c2ncc[nH]2)cc1)Nc1ccc(Cl)cc1

>  <tested.system>
ACHN renal

>  <numeric.result>
7.66

$$$$
>  <structure.smiles>
Cc1nc(Cl)c(CBr)c(Cl)n1

>  <tested.system>
ACHN renal

>  <numeric.result>
3.15

$$$$

The record that follows has no TGI shown yet.
Noted for `Cc1c(C(=O)/C=C/c2cccc3ccccc23)[n+](=O)c2ccccc2n1[O-]` : its TGI reads 29.4

* * *

Tested on: K-562 leukemia
experiment: NCI tumour cell line growth inhibition, 48 h
Measured TGI, listed per entry for reference.
Report as a plain number; the unit µM is understood.

>  <structure.smiles>
O=C1C(Br)=Cc2c(Cl)sc(Cl)c21

>  <readout.unit>
µM

>  <TGI>
13.6

$$$$
>  <structure.smiles>
OCc1c(-c2cccc3ccccc23)sc(-c2cccc3ccccc23)c1CO

>  <readout.unit>
µM

>  <TGI>
31.3

$$$$
>  <structure.smiles>
O=[N+]([O-])C(=C(Sc1ccccc1)Sc1ccccc1)C(Cl)=C(Cl)Cl

>  <readout.unit>
µM

>  <TGI>
0.701

$$$$
>  <structure.smiles>
CN(C)CCNC(=O)c1cccc2nc3c(Cl)cccc3nc12

>  <readout.unit>
µM

>  <TGI>
8.74

$$$$
>  <structure.smiles>
Clc1cccc(NC=Nc2ccc(-c3nc4ccccc4s3)cc2)c1

>  <readout.unit>
µM

>  <TGI>
18.2

$$$$

The record that follows has no TGI shown yet.
Noted for `Cc1cccc(C[C@@]2(SCc3ccccc3)C(C)(C)[C@@H]3CC[C@@]2(C)C3)n1` : its TGI reads 28.9

* * *

System: NCI-H226 lung
experiment: NCI tumour cell line growth inhibition, 48 h
measurement.name: log10 of TGI (log10 of the value in µM)
log10 TGI, µM

Previously resolved entries follow.
>  <compound>
O=[n+]1c(CBr)c(CBr)n([O-])c2ccccc21

>  <log10 of TGI>
1.49

$$$$
>  <compound>
COC(=O)c1c2c(c(C)[n+]([O-])c1C)C(=O)C=CC2=O

>  <log10 of TGI>
0.47

$$$$
>  <compound>
COc1cc([C@@H]2c3cc4c(cc3[C@@H](NC(=O)c3cccc([N+](=O)[O-])c3)C3COC(=O)[C@@H]32)OCO4)cc(OC)c1O (stereo not given in full)

>  <log10 of TGI>
0.01

$$$$
>  <compound>
CN(C)CCNC(=O)c1cccc2nc3c(Cl)cccc3nc12

>  <log10 of TGI>
1.13

$$$$

The record that follows has no log10 of TGI shown yet.
Noted for `C[C@@H]1Cc2c([nH]c3ccccc23)[C@@H](c2c(F)cc(/C=C/C(=O)O)cc2F)N1CC(C)(C)F` : its log10 of TGI reads 1.66

* * *

Test system: DLD-1 colon
experiment: NCI tumour cell line growth inhibition, 48 h
Measured TGI, listed per entry for reference.

>  <compound>
COc1cc2c(cc1OC)C1C=NC(C(=O)O)(C2)c2ccccc21 (configuration not stated)

>  <TGI>
> 100 µM

$$$$
>  <compound>
NC1(CCCCCCCCCCC(=O)O)CNCCNCCNCCNC1

>  <TGI>
> 100 µM

$$$$
>  <compound>
Cc1cc(C)nc(NS(=O)(=O)c2ccc(NC(=O)c3cccc4c(=O)c5ccccc5[nH]c34)cc2)n1

>  <TGI>
45.6 µM

$$$$

The record that follows has no TGI shown yet.
Noted for C=CCCCC12CCCc3cccc(c31)NC2=O (configuration not stated) : its TGI reads 42.4 µM

* * *

Measured GI50, listed per entry for reference.
System: UACC-62 melanoma
experiment: NCI tumour cell line growth inhibition, 48 h
Where a SMILES comes first, the peptide text is derived from it. [ ]: non-standard residue; d: D form. The star is where a group is joined. Bn2Val = CC(C)[C@@H](C(=O)*)N(Cc1ccccc1)Cc1ccccc1; NH(3,4-diMeO-benzyl) = COc1ccc(CN*)cc1OC; NMeV = CN[C@H](C(=O)O)C(C)C; dNMeA = CN[C@H](C)C(=O)O

>  <molecule>
O=C(/C=C(\[O-])c1ccccc1)CCCCCCC(=O)/C=C(\[O-])c1ccccc1.O=C(/C=C(\[O-])c1ccccc1)CCCCCCC(=O)/C=C(\[O-])c1ccccc1.O=C(/C=C(\[O-])c1ccccc1)CCCCCCC(=O)/C=C(\[O-])c1ccccc1.[La+3].[La+3]

>  <tested.system>
UACC-62 melanoma

>  <GI50>
> 50000 nM

$$$$
>  <molecule>
CC1=C(CCCOC(=O)NCCCl)C2=C(C)C3(CC3)[C@@](C)(O)C(=O)C2=C1

>  <tested.system>
UACC-62 melanoma

>  <GI50>
2020 nM

$$$$
>  <molecule>
CC(=O)c1ccc(N(/C=C/C(=O)C(F)(F)F)CC(=O)c2ccc(Cl)c(Cl)c2)cc1

>  <tested.system>
UACC-62 melanoma

>  <GI50>
7010 nM

$$$$
>  <molecule>
CCN1CCN(c2nc(NCCNc3ccnc4cc(Cl)ccc34)c3ccccc3n2)CC1

>  <tested.system>
UACC-62 melanoma

>  <GI50>
1410 nM

$$$$
>  <molecule>
COc1ccc(CNC(=O)COc2ccc(/C=N/Nc3nc4ccccc4s3)cc2)cc1

>  <tested.system>
UACC-62 melanoma

>  <GI50>
2320 nM

$$$$
>  <molecule>
S=C1NCCN1C1=Nc2ccccc2CO1

>  <tested.system>
UACC-62 melanoma

>  <GI50>
> 100000 nM

$$$$

Noted for `NNC(=O)c1cnn(-c2ccnc3c(C(F)(F)F)cccc23)c1N` : its GI50 reads > 100000 nM

Noted for `CN(C)CCNc1nc2ccccc2c2[nH]c3ccccc3c12` : its GI50 reads 1360 nM

Noted for `N#Cc1c(O)c2c(c(O)c1C#N)C(=O)c1ccccc1C2=O` : its GI50 reads 1050 nM

Noted for `NS(=O)(=O)c1ccc(-n2nc(-c3ccc(Br)cc3)ccc2=O)cc1` : its GI50 reads > 10000 nM

Noted for COc1ccc(CNC(=O)[C@@H](C)N(C)C(=O)[C@@H]2CCCN2C(=O)[C@H](C(C)C)N(C)C(=O)[C@@H](NC(=O)[C@H](C(C)C)N(Cc2ccccc2)Cc2ccccc2)C(C)C)cc1OC (Bn2Val-V[NMeV]P[dNMeA]-{NH(3,4-diMeO-benzyl)}) : its GI50 reads 13500 nM

* * *

Tested on: SW-620 colon
experiment: NCI tumour cell line growth inhibition, 48 h; in the data active means GI50 below about 0.43 µM; inactive means the rest
Respond only with the outcome that fits, drawn from true (active), false (inactive)

Ask | Short answer needed: outcome of this test for `Fc1ccc(-c2nn(-c3ccccc3)cc2-c2nc3ccccc3o2)cc1` ?
Reply | false

Ask | Short answer needed: outcome of this test for `S=C1NCCN1C1=Nc2ccccc2CO1` ?
Reply | false

Ask | Short answer needed: outcome of this test for OC(c1cccc(C(F)(F)F)c1)c1cnccc1NC1CCCCCC1 (centres undefined) ?
Reply | false

Ask | Short answer needed: outcome of this test for `ClCc1ccccc1CSc1ncnc2nc[nH]c12` ?
Reply | false

Ask | Short answer needed: outcome of this test for `O=C1CSC(N2CCN(c3cccc(Cl)c3)CC2)=N1` ?
Reply | false

* * *

Measured TGI, listed per entry for reference.
Test system: SF-268 CNS
experiment: NCI tumour cell line growth inhibition, 48 h

Previously resolved entries follow.
>  <molecule>
CSc1c(C(=O)Nc2ccc(C)cc2)c(N)[nH]c(=O)c1C#N

>  <TGI>
> 100 µM

$$$$
>  <molecule>
Cc1nc(Cl)c(CBr)c(Cl)n1

>  <TGI>
8.85 µM

$$$$
>  <molecule>
CC(=O)OCC1OC(n2c(=S)[nH]c(-c3ccccc3)c(C#N)c2=O)C(OC(C)=O)C(OC(C)=O)C1OC(C)=O (stereo not drawn)

>  <TGI>
> 100 µM

$$$$
>  <molecule>
OC(c1cccc(C(F)(F)F)c1)c1cnccc1NC1CCCCCC1 (stereo not drawn)

>  <TGI>
13.8 µM

$$$$
>  <molecule>
O=c1c2cc(I)ccc2[nH]c(=S)n1Cc1ccccc1

>  <TGI>
57.5 µM

$$$$

Noted for `CCOc1ccc(N=C/C=C(\Cl)c2ccc3ccccc3c2)cc1` : its TGI reads 37.4 µM

Noted for `COC(=O)CCCC(=O)C(=Nc1c(Cl)cccc1Cl)NNc1ccc(Cl)cc1` : its TGI reads > 100 µM
